The measured values listed here are drawn from ChEMBL document CHEMBL1157406.

# Measurement target: Focal adhesion kinase 1 (Homo sapiens)
# Sequence (Q05397 whole entry): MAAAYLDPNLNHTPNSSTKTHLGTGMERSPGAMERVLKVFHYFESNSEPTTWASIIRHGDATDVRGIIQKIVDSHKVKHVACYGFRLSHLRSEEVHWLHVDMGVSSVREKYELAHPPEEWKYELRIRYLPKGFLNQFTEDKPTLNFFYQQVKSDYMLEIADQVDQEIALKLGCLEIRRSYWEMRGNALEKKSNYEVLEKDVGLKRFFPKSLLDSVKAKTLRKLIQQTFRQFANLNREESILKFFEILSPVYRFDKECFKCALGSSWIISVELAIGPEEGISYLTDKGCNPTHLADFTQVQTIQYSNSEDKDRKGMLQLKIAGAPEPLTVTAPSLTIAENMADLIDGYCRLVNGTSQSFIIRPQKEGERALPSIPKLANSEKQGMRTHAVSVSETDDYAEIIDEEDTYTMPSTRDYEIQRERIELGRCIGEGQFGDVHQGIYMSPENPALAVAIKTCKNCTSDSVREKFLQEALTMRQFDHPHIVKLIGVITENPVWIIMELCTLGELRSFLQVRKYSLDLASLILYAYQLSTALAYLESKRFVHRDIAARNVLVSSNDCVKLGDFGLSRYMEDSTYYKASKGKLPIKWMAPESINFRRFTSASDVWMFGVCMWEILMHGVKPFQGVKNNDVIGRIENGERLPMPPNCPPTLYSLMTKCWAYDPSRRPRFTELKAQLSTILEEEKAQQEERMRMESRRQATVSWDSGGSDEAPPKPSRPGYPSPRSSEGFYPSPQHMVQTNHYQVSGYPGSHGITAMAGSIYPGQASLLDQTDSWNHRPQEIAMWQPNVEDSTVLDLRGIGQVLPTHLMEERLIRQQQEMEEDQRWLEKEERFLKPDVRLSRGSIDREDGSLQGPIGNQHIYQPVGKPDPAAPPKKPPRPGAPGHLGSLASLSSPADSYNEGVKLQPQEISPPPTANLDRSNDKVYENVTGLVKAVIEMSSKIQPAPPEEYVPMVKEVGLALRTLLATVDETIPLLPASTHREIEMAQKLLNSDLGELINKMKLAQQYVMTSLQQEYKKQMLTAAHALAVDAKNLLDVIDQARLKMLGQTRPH
# Assay info: Inhibition of recombinant FAK
# Experimental context: read-out: IC50 (converted)
Reported values of IC50 for individual entries
Answer with a number only, understood to be in µM.

For orientation, consider the following solved cases.
Cc1cc(O)cc2oc(=O)c3c(O)cc(OS(=O)(=O)O)cc3c12 ... 6.21
Cc1cc(O)cc2oc(=O)c3c(O)cc(O)cc3c12 [ALTERNARIOL] ... 9.29
O=C1C[C@H](O)[C@@H]2c3c(ccc(O)c31)-c1ccc(O)c3c1[C@@]2(O)CCC3=O [ALTERTOXIN I] ... 20.7
COc1cc(O)c2c(=O)oc3cc(O)cc(C)c3c2c1 ... 32.7

May I ask what IC50 has been recorded for COc1cc(O)c2c(=O)oc3c(O)c(O)cc(C)c3c2c1 ?
17

---

# Measurement target: Hepatocyte growth factor receptor (Homo sapiens)
# Sequence (P08581 whole entry): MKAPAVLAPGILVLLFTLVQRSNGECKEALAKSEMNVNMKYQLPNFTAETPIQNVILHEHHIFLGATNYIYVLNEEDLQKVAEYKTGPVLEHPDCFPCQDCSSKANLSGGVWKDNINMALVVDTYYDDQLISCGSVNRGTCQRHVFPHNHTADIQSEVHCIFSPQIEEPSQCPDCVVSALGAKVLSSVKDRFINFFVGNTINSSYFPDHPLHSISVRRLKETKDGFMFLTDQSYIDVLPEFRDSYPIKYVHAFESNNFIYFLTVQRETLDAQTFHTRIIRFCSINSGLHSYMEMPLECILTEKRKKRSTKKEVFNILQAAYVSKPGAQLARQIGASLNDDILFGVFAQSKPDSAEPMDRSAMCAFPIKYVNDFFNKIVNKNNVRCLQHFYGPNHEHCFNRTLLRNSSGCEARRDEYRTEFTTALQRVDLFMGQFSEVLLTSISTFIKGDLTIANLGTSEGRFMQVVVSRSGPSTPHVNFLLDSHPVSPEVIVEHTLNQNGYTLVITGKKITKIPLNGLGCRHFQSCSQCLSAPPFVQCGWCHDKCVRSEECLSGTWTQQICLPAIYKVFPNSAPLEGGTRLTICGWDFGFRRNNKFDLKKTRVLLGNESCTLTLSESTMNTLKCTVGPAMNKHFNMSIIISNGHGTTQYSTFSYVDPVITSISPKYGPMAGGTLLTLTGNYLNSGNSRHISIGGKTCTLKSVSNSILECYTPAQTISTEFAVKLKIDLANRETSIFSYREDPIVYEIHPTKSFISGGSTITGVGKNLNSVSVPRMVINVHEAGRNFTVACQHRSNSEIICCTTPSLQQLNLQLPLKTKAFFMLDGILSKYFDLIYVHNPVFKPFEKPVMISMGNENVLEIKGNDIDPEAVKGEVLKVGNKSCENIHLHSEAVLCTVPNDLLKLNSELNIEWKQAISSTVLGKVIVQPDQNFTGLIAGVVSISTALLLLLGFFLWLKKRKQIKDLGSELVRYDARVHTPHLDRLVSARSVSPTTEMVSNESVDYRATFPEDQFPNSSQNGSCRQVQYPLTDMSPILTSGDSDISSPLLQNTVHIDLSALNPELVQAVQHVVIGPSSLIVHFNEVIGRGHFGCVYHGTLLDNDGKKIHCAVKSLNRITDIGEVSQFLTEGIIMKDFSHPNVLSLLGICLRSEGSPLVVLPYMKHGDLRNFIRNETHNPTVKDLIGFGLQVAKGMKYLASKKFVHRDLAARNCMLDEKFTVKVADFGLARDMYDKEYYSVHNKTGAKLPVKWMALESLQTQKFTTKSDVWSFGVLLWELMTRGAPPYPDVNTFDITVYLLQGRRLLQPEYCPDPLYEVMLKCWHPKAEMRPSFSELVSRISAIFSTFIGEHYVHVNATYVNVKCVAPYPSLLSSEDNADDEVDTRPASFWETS
# Assay info: Inhibition of recombinant MET
# Experimental context: read-out: IC50 (converted)
Catalogue of IC50 values
The answer is to be given in µM; state only the numeric part.

Answered examples (3):
COc1cc(O)c(C(=O)O)c(-c2cc(O)c(O)cc2C)c1 ... 14.8
Cc1cc(O)c(O)cc1-c1cc(O)cc(O)c1C(=O)O ... 9.05
COc1cc(O)c2c(=O)oc3c(O)c(O)cc(C)c3c2c1 ... 5.9

Please look up its IC50: Cc1cc(O)cc2oc(=O)c3c(O)cc(OS(=O)(=O)O)cc3c12
22.5

---

IC50: recorded values
# Measurement target: Aurora kinase A (Homo sapiens, UniProt O14965)
# Sequence (O14965 whole entry): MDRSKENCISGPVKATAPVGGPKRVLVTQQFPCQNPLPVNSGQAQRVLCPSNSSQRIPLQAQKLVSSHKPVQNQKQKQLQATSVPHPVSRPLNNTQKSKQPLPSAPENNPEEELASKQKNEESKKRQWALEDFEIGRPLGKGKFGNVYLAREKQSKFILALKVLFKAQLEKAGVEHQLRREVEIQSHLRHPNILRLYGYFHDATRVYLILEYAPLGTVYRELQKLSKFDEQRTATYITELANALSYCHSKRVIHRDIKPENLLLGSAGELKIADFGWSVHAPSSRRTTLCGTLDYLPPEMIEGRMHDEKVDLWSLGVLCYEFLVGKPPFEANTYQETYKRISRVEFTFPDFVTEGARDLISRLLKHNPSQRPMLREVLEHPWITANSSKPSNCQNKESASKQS
# Assay info: Inhibition of recombinant Aurora A
# Experimental context: read-out: IC50 (converted)
State just the number; it will be interpreted in µM.

COc1cc(O)c(C(=O)O)c(C2=C(C)C[C@@H](O)C2=O)c1 [ALTERNARIENONIC ACID] ... 15.8
COc1cc(O)c2c(=O)oc3c(O)c(O)cc(C)c3c2c1 ... 5.2

Next molecule, please.
Any idea what IC50 was measured for COc1cc(O)c(C(=O)O)c(-c2cc(O)c(O)cc2C)c1 [ALTENUSIN] ?
6.2
